// provenance: patent US5399785A

Reported pIC50 values for a set of molecules
target: tyrosinase (Sigma Co.); experiment: Measurement of tyrosinase activity inhibition (L-DOPA substrate, absorbance at 417 nm); assay type: biochemical; conditions: substrate 2 mM L-DOPA, phosphate-potassium buffer pH 6.8, tyrosinase 0.5 mg/ml, absorbance 417 nm; read-out: IC50, concentration of tyrosinase activity inhibitor when the tyrosinase activity inhibition (%) is 50%
Just the number, please; pIC50 means minus log10 of the concentration in mol/L.

Cc1cc(O)cc(O)c1 [drawing 5 Methyl, 5-methylresorcinol] :: 2.30
CCc1cc(O)cc(O)c1 [drawing 5 Ethyl] :: 3.15
CCCCCCCc1ccc(O)cc1O [drawing 4 n-Heptyl] :: 6.15
Cc1ccc(O)cc1O [drawing 4 Methyl] :: 5.10

*Q* Tell me the measured pIC50 of CCCCCc1ccc(O)cc1O [drawing 4 n-Pentyl] , please.
*A* 6.10

*Q* What value of measured pIC50 is listed for CCCc1cc(O)cc(O)c1 [drawing 5 n-Propyl] ?
*A* 3.30

*Q* Request the reported pIC50 associated with CCCc1ccc(O)cc1O [drawing 4 n-Propyl]
*A* 6.05

---

Biological target: tyrosinase (Sigma Co.)
Test: Measurement of tyrosinase activity inhibition (L-DOPA substrate, absorbance at 417 nm)
Details: substrate 2 mM L-DOPA, phosphate-potassium buffer pH 6.8, tyrosinase 0.5 mg/ml, absorbance 417 nm; read-out: IC50, concentration of tyrosinase activity inhibitor when the tyrosinase activity inhibition (%) is 50%
Method: The measurement was conducted by the following method. The reaction reagent used are as follows: Substrate: 2 mM L-DOPA (Wako Junyaku Co.) Buffer: 0.1 mM phosphate-potassium solution (pH 6.8) […] An enzyme solution (0.20 ml) was added to the cell. Three minutes later, the measurement of temporal changes of an absorbance (417 nm) by means of a spectrophotometer had started. The inhibition % was calculated based on the following equation: […]
parameterMeasured: IC50
I'd appreciate it if you included the unit after the number.

Take a look at these entries with their results.
CCCCCCCc1cc(O)cc(O)c1 [drawing 5 n-Heptyl] :: 200 µM
CCCCCCCCCc1cc(O)cc(O)c1 [drawing 5 n-Nonyl] :: 200 µM
CCCCCc1cc(O)cc(O)c1 [drawing 5 n-Pentyl] :: 200 µM
CCCc1cc(O)cc(O)c1Cc1c(O)cc(O)cc1CCC [Example 3] :: 25 µM
CCc1ccc(O)cc1O [drawing 4 Ethyl, 4-ethylresorcinol] :: 2 µM

// next entry
*Q* Param readout = IC50; param system = tyrosinase (Sigma Co.); param query = CCCCCCCCCc1ccc(O)cc1O [drawing 4 n-Nonyl] ; response: value
*A* 0.9 µM
